Recorded values, source patent US20250152585A1.

Catalogue of pKd readings, one per entry.
- target.or.system: full length N-terminally FLAG-tagged PARP1 (Homo sapiens)
- assay.remarks: PARP1 probe displacement HTRF assay
- assay.setup: read-out: PARP1 HTRF; binned Kd, probe displacement HTRF
pKd: −log10 of the molar value.

Use these answered entries as a reference point.
{"columns": ["molecule", "target.or.system", "pKd"],
 "data": [
  ["CNC(=O)c1ncc(N2CCC(N3CCC(c4cc5ccc(F)cc5c(=O)[nH]4)C3)CC2)c(Cl)n1 (racemic)", "full length N-terminally FLAG-tagged PARP1 (Homo sapiens)", "> 8.00"],
  ["CCc1ccc(C2CC(=O)N(C3CCN(c4ccc(C(=O)NC)nc4)CC3)C2)[nH]c1=O (racemic)", "full length N-terminally FLAG-tagged PARP1 (Homo sapiens)", "> 8.00"],
  ["CS(=O)(=O)NC(=O)c1ccc(N2CCC(N3CCC(c4cc5ccccc5c(=O)[nH]4)C3)CC2)cn1 (racemic)", "full length N-terminally FLAG-tagged PARP1 (Homo sapiens)", "7.00 to 8.00"],
  ["CNC(=O)c1ccc(N2CCC(N3CCC(c4cc5[nH]nc(C(F)(F)F)c5c(=O)[nH]4)C3)CC2)c(F)n1 (single isomer, unassigned) [Compound 280b]", "full length N-terminally FLAG-tagged PARP1 (Homo sapiens)", "> 8.00"],
  ["CCc1ccc(C2CCN(C3CCN(c4ccc(C(=O)NC)c(F)c4)CC3)C2)[nH]c1=O (racemic)", "full length N-terminally FLAG-tagged PARP1 (Homo sapiens)", "7.00 to 8.00"],
  ["O=C(NC1CC1)c1ccc(N2CCC(N3CCC(c4cc5cccc(F)c5c(=O)[nH]4)C3)CC2)c(F)n1 (single isomer, unassigned) [Compound 349a]", "full length N-terminally FLAG-tagged PARP1 (Homo sapiens)", "> 8.00"],
  ["CNC(=O)c1ccc(N2CCC(N3CCC(c4nc5ccc(F)c(F)c5c(=O)[nH]4)C3)CC2)cn1 (single isomer, unassigned) [Compound 222a]", "full length N-terminally FLAG-tagged PARP1 (Homo sapiens)", "> 8.00"],
  ["CS(=O)(=O)Nc1ccc(N2CCC(N3CCC(c4nc5ccccc5c(=O)[nH]4)C3)CC2)cc1 (single isomer, unassigned) [Compound 250a]", "full length N-terminally FLAG-tagged PARP1 (Homo sapiens)", "6.00 to 7.00"]
]}

Given the entry CC(=O)Nc1ccc(N2CCC(N3CCC(c4cc5ccccc5c(=O)[nH]4)C3)CC2)cc1 (single isomer, unassigned) [Compound 289a] , report its measured pKd.
6.00 to 7.00

Try the molecule CNC(=O)c1ccc(N2CCC(N3CCC(c4cc5cccc(F)c5c(=O)[nH]4)C3)CC2)cc1F (single isomer, unassigned) [Compound 281b]
6.00 to 7.00

Try the molecule O=c1[nH]c(C2CCN(C3CCN(c4ccc(OC(F)F)nc4)CC3)C2)cc2ccc(F)cc12 (single isomer, unassigned) [Compound 374a]
7.00 to 8.00

----------
Catalogue of pKd readings, one per entry.
- target.or.system: N-terminally FLAG-tagged PARP2 (amino acids 1-583) (Homo sapiens, UniProt Q9UGN5)
- Construct: N-terminally FLAG-tagged PARP2 (amino acids 1-583)
- Sequence (Q9UGN5 whole entry, the tested form may be a part): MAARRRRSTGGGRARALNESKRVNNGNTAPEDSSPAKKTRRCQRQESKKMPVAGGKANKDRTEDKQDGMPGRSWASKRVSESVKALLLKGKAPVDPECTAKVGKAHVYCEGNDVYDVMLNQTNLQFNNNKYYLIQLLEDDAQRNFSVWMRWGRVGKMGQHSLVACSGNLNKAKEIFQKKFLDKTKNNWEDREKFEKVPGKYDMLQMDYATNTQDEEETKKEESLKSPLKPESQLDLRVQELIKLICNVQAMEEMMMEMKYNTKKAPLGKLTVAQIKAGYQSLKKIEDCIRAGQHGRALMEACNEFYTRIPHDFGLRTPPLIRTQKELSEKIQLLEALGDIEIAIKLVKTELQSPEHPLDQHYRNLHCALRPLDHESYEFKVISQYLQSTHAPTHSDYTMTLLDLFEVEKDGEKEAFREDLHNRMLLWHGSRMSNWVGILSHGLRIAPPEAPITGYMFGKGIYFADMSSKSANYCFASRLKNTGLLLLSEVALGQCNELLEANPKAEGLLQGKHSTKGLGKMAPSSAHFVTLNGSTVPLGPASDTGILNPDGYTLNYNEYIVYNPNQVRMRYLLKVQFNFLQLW
- assay.remarks: PARP2 probe displacement HTRF assay
- Format: binding
- assay.setup: binned Kd, PARP2 probe displacement HTRF
pKd: −log10 of the molar value.

Use these answered entries as a reference point.
{"columns": ["molecule", "target.or.system", "pKd"],
 "data": [
  ["CNC(=O)c1ccc(N2CCC(N3CCC(c4nc5ccncc5c(=O)[nH]4)C3)CC2)cn1 (single isomer, unassigned) [Compound 81a]", "N-terminally FLAG-tagged PARP2 (amino acids 1-583) (Homo sapiens, UniProt Q9UGN5)", "< 5.00"],
  ["CNC(=O)c1ccc(N2CCC(N3CCC(c4cc5cccc(C(F)(F)F)c5c(=O)[nH]4)C3)CC2)cn1 (racemic)", "N-terminally FLAG-tagged PARP2 (amino acids 1-583) (Homo sapiens, UniProt Q9UGN5)", "7.00 to 8.00"],
  ["CNC(=O)c1ccc(N2CCC(N3CCC(c4nc5ncccc5c(=O)[nH]4)C3)CC2)cn1 (single isomer, unassigned) [Compound 60a]", "N-terminally FLAG-tagged PARP2 (amino acids 1-583) (Homo sapiens, UniProt Q9UGN5)", "< 5.00"]
]}

Entry CNC(=O)c1ccc(N2CCC(N3CCC(c4nc5c(C(F)(F)F)cccc5c(=O)[nH]4)C3)CC2)cn1 (single isomer, unassigned) [Compound 178a] , system N-terminally FLAG-tagged PARP2 (amino acids 1-583) (Homo sapiens, UniProt Q9UGN5): what pKd was measured?
5.00 to 6.00

----------
- target.or.system: full length N-terminally FLAG-tagged PARP1 (Homo sapiens, UniProt P09874)
- Sequence (P09874 whole entry): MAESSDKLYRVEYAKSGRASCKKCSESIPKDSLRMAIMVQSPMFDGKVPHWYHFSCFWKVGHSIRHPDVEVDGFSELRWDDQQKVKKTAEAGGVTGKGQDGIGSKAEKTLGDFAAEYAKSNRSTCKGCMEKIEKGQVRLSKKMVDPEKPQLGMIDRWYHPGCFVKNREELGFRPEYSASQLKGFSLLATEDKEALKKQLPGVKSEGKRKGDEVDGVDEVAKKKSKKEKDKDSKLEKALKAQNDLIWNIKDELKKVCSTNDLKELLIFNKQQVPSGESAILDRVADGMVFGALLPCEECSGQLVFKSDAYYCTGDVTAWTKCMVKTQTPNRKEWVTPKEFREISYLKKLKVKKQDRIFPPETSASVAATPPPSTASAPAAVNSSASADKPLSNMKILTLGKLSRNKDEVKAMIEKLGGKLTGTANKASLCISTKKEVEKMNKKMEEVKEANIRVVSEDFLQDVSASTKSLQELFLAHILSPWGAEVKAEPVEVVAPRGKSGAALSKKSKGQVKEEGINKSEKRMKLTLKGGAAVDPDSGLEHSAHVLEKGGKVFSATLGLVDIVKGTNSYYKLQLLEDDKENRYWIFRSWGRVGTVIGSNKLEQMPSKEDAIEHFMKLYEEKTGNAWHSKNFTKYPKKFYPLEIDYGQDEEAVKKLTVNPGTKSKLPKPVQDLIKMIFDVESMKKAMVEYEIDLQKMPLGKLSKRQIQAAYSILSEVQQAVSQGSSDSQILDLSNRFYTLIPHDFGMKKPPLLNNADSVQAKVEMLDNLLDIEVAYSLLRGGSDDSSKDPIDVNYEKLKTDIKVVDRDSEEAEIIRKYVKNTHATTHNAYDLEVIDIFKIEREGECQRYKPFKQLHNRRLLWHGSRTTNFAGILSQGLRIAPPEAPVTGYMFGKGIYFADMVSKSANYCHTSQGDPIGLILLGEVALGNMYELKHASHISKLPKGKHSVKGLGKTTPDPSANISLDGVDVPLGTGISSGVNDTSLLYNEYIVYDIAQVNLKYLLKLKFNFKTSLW
- assay.remarks: PARP1 biochemical DELFIA assay (auto-PARylation)
- Parameters: recombinant full length human N-terminally FLAG-tagged PARP1
- assay.setup: binned IC50, PARP1 biochemical DELFIA assay
pIC50: −log10 of the molar value.
value.type: pIC50

{"columns": ["compound", "pIC50"],
 "data": [
  ["CNC(=O)c1ccc(N2CCC(N3CCC(c4cc5ccc(Cl)cc5c(=O)[nH]4)C3)CC2)cn1 (single isomer, unassigned) [Compound 129b]", "> 8.00"]
]}

Given the entry CCc1ccc(C2CCCN(C3CCN(c4ccc(C(=O)NC)nc4)CC3)C2)[nH]c1=O (single isomer, unassigned) [Compound 53a] , report its measured pIC50.
> 8.00

Try the compound CNC(=O)c1ccc(N2CCC(N3CCC(c4cc5cccc(F)c5c(=O)[nH]4)C3)CC2)c(F)n1 (single isomer, unassigned) [Compound 184b]
> 8.00

Try the compound CNC(=O)c1ccc(N2CCC(N3CCC(c4nc5cc(F)ccc5c(=O)[nH]4)C3)CC2)cn1 (single isomer, unassigned) [Compound 92a]
6.00 to 7.00

Try the compound CNC(=O)c1ccc(N2CCC(N3CCC(C)(c4nc5ccccc5c(=O)[nH]4)C3)CC2)cn1 (single isomer, unassigned) [Compound 67b]
6.00 to 7.00

Try the compound CNC(=O)c1ccc(N2CCC(N3CCC(c4nc5ncccc5c(=O)[nH]4)C3)CC2)cn1 (single isomer, unassigned) [Compound 60a]
> 8.00

----------
- target.or.system: UniProtKB P09874
- assay.remarks: PARP1 probe displacement HTRF assay
- assay.setup: read-out: PARP1 HTRF; binned Kd, probe displacement HTRF
pKd: −log10 of the molar value.
value.type: pKd

{"columns": ["compound", "value.type", "assay.value"],
 "data": [
  ["O=c1[nH]c(C2CCN(C3CCN(c4nccs4)CC3)C2)cc2ccccc12 (racemic) [Compound 254rac]", "pKd", "6.00 to 7.00"],
  ["CNC(=O)c1ccc(N2CCC(N3CCC(c4ccc(CC(F)F)c(=O)[nH]4)C3)CC2)cn1 (racemic) [Compound 391rac]", "pKd", "> 8.00"],
  ["CNC(=O)c1ccc(N2CCC(N3CCCC(O)(c4nc5ccccc5c(=O)[nH]4)C3)CC2)cn1 (single isomer, unassigned) [Compound 327a]", "pKd", "6.00 to 7.00"]
]}

In the following, a different compound is considered.
Given the entry CCc1ccc(C2CCN(C3CCN(c4cnc(C(=O)NC)nc4C(F)(F)F)CC3)C2)[nH]c1=O (racemic) [Compound 278rac] , report its measured pKd.
7.00 to 8.00

----------
- target.or.system: full length N-terminally FLAG-tagged PARP1 (Homo sapiens, UniProt P09874)
- assay.remarks: PARP1 biochemical DELFIA assay (auto-PARylation)
- Set-up: recombinant full length human N-terminally FLAG-tagged PARP1
- assay.setup: binned IC50, biochemical auto-PARylation assay
pIC50: −log10 of the molar value.
Catalogue of pIC50 readings, one per entry.

{"columns": ["compound", "assay.value"],
 "data": [
  ["CNC(=O)c1ccc(N2CCC(N3CCC(c4cnc(C(F)(F)F)c(=O)[nH]4)C3)CC2)cn1 (single isomer, unassigned) [Compound 279a]", "6.00 to 7.00"],
  ["CNC(=O)c1ccc(N2CCC(N3CC(c4cc5cccc(F)c5c(=O)[nH]4)C(F)(F)C3)CC2)cn1 (racemic)", "> 8.00"],
  ["CNC(=O)c1ccc(N2CCC(N3CC4(c5nc6c(c(=O)[nH]5)COCC6)CC3C4)CC2)cn1", "> 8.00"],
  ["CCc1ccc(C2CCN(C3CCN(c4ccc(C(=O)NC)c(F)c4)CC3)C2)[nH]c1=O (racemic)", "7.00 to 8.00"]
]}

In the following, a different compound is considered.
Entry CCc1ccc(C2CCN(C3CCN(c4ccc(C#N)cc4)CC3)C2)[nH]c1=O (single isomer, unassigned) [Compound 317a] , system full length N-terminally FLAG-tagged PARP1 (Homo sapiens, UniProt P09874): what pIC50 was measured?
7.00 to 8.00
